The compounds listed here are annotated with their HFF1 LD50.
System: HFF1 human foreskin fibroblasts
assay: Viability of human foreskin fibroblasts (trypan blue exclusion)
condition label: human, 24 h
Description: To evaluate the effect on cell viability, HFF1 cells cultured and washed as above were dispensed in a 96 well plate to a concentration of 1 × 10^4 cells/well in 0.2 mL and incubated for 24 h at 37 °C for adherence. […] To determine viability, cells were detached by trypsinization and then collected, and viability was determined by trypan blue exclusion.

[
  {
    "compound": "Nc1nc(N)c2cc(NC(=O)c3ccc([N+](=O)[O-])cc3)ccc2n1",
    "target entity": "HFF1 human foreskin fibroblasts",
    "HFF1 LD50": ">100 (6) µM"
  }
]

Exam item: Quickly give me recorded HFF1 LD50 for `Nc1nc(N)c2cc(NCc3cc(F)ccc3F)ccc2n1`
Marked response: >60 (4) µM

Exam item: Identify the reported HFF1 LD50 for the following entry. `Nc1nc(N)c2cc(NCc3cccc(Cl)c3)ccc2n1`
Marked response: 85 ± 7 (6) µM

Exam item: Look up and state reported HFF1 LD50 for Nc1nc(N)c2cc(NC(=O)c3ccccc3)ccc2n1 [Compound 1, N-(2,4-Diaminequinazolin-6-yl)benzamide]
Marked response: >100 (6) µM

Exam item: Please give the documented HFF1 LD50 of O=C(Cn1ccnc1[N+](=O)[O-])NCc1ccccc1 [Bnz, reference compound]
Marked response: 165 ± 27 (3) µM

---

System: T. cruzi Queretaro strain epimastigotes
assay: Growth of epimastigotes cultured in vitro (motile parasites counted, relative growth)
Format: cell-based, Trypanosoma cruzi
condition label: Trypanosoma cruzi, 120 h; epimastigote growth, 5 days, single initial pulse of compound; read-out: Epi ED50
pIC50 listing for selected compounds.
Scale explanation: pIC50 corresponds to minus log10 of a concentration expressed in moles per litre.

[
  {
    "compound": "Nc1nc(N)c2cc(NC(=O)c3ccccc3[N+](=O)[O-])ccc2n1",
    "pIC50": 4.82
  },
  {
    "compound": "Nc1nc(N)c2cc(NCc3ccccc3Cl)ccc2n1",
    "pIC50": 5.18
  },
  {
    "compound": "O=C(Cn1ccnc1[N+](=O)[O-])NCc1ccccc1 [Bnz, reference compound]",
    "pIC50": 4.77
  },
  {
    "compound": "Nc1nc(N)c2cc(NCc3cc(F)ccc3F)ccc2n1",
    "pIC50": 4.70
  },
  {
    "compound": "Nc1nc(N)c2cc(NCc3cccc(Cl)c3)ccc2n1",
    "pIC50": 5.09
  }
]

Exam item: State pIC50 on T. cruzi Queretaro strain epimastigotes. Entry: `Nc1nc(N)c2cc(NCc3ccc(Cl)cc3)ccc2n1`
Marked response: 4.85

Exam item: Lab note: record pIC50 of `Nc1nc(N)c2cc(NC(=O)c3ccc([N+](=O)[O-])cc3)ccc2n1` tested on T. cruzi Queretaro strain epimastigotes.
Marked response: 5.00

Exam item: Jot down pIC50 (T. cruzi Queretaro strain epimastigotes) of `Nc1nc(N)c2cc(NC(=O)c3cccc([N+](=O)[O-])c3)ccc2n1` .
Marked response: 5.05

Exam item: Consider the compound CC1CS(=O)(=O)CCN1/N=C/c1ccc([N+](=O)[O-])o1 (centres unmarked) [Nfx, reference compound] tested on T. cruzi Queretaro strain epimastigotes; state its pIC50.
Marked response: 4.93

Exam item: For T. cruzi Queretaro strain epimastigotes, give the measured pIC50 of the entry `Nc1nc(N)c2cc(NCc3ccccc3)ccc2n1`
Marked response: 4.85
